// provenance: PubChem BioAssay AID463173

Tested on: DeltatarO mutant
Assay: S. aureus survival, RN4220 and DeltatarO strains – OD600, teichoic acid synthesis inhibitors, primary screen (AID 463173)
Settings: S. aureus RN4220 wild type/DeltatarO growth, OD600, 18 h, active compounds read low, screened at 18.75 µg/mL (by protocol)
Screen size: about 52,000 compounds; about 4,300 (8.3%) were called active. This is one part of a sample in which actives are shown more often than they occur.
Below, each entry is listed alongside its reported survival.
observed-property: survival

line_notation=COC(=O)c1ccccc1NC(=O)Cn1c(=O)n(CCC(=O)NCc2ccccc2OC)c(=O)c2ccccc21 measured="82% (inactive)"
line_notation=CC1(C)Cc2ccccc2C(=NCCC(=O)O)N1 measured="79% (inactive)"
line_notation=Cc1ccc(CCNC(=O)CCSCc2ccc(Cl)cc2)cc1 measured="82% (inactive)"
line_notation=COC(=O)c1nnn(-c2ccc(Br)cc2)c1C(=O)OC measured="79% (inactive)"

====

Test system: DeltatarO mutant
Experiment: S. aureus survival, RN4220 and DeltatarO strains – OD600, teichoic acid synthesis inhibitors, primary screen (AID 463173)
Details: S. aureus RN4220 wild type/DeltatarO growth, OD600, 18 h, screened at 18.75 µg/mL (by protocol)
In all, about 52,000 compounds went through this assay and about 4,300 (8.3%) were called active. Cut-off read from the data, not from the text of the source: active = survival mostly below about 52% (no sharp cut-off); inactive = mostly above about 56%. The sample as a whole holds a higher share of actives than the screen did.
Classes used: active, inactive

molecule=CC(C)N(Cc1nc(-c2ccc(Cl)cc2)no1)C(=O)c1ccco1 group=inactive
molecule=CCOc1cc(C(=O)NCc2nc(-c3cccc(C)c3)no2)cc(OCC)c1OCC group=inactive
molecule=CCOc1ccc(-c2nnc(SCC(=O)Oc3ccccc3)o2)cc1 group=inactive
molecule=Cc1ccc(OCc2nc(C#N)c(NCCc3ccccc3)o2)cc1 group=active
molecule="Cc1ccc(Cl)cc1NC(=O)CC1Sc2ccccc2NC1=O (stereo unspecified)" group=inactive
molecule=N#Cc1nc(COc2ccccc2Cl)oc1NCCc1ccccc1 group=inactive

====

Test system: DeltatarO mutant
Assay: S. aureus survival, RN4220 and DeltatarO strains – OD600, teichoic acid synthesis inhibitors, primary screen (AID 463173)
Settings: S. aureus RN4220 wild type/DeltatarO growth, OD600, 18 h, active compounds read low, screened at 18.75 µg/mL (by protocol)
The whole screen tested about 52,000 compounds, of which about 4,300 (8.3%) were called active. For the sample, actives were picked, then their nearest neighbours and some compounds at random.
Kindly apply the following: criterion met if survival is less than 50%, criterion not met in every other case.

molecule="CCCOc1ccc(C(=O)NCC(c2ccc(OC)cc2)N2CCCCC2)cc1 (stereo unspecified)" group="criterion not met"
molecule=Cc1ccc(-n2ncc(C(=O)NC3CCCCC3)c2C2CCN(C(=O)OC(C)(C)C)CC2)cc1 group="criterion not met"
molecule=COc1ccc(Cl)cc1C(=O)NCc1nc(-c2cccc(C)c2)no1 group="criterion met"
molecule=COc1cc(OC)cc(C(=O)Nc2cccc(-c3cn4ccsc4n3)c2)c1 group="criterion met"
molecule=COc1cccc(C(=O)NCc2nc(-c3ccccc3)no2)c1OC group="criterion met"

====

Test system: DeltatarO mutant
Test: S. aureus survival, RN4220 and DeltatarO strains – OD600, teichoic acid synthesis inhibitors, primary screen (AID 463173)
Conditions: S. aureus RN4220 wild type/DeltatarO growth, OD600, 18 h, active compounds read low, screened at 18.75 µg/mL (by protocol)
Hit rate of the full screen: of about 52,000 compounds, about 4,300 (8.3%) were called active. What follows is part of a selection rich in actives, with near analogues and random picks from the rest.
Consider the following compounds and their measured survival readings.
observed-property: survival (%)

compound=Cc1ccc(-c2nnc(NC(=O)c3ccc4c(c3)OCCO4)o2)c(C)c1 measured=96
compound=CCc1ccccc1NC(=O)CCc1c(C)nc2cc(-c3ccccc3)nn2c1C measured=59
compound=COc1ccc(CSC(=N)N)cc1Cl measured=97
compound="COc1ccc(NC(=O)C2Cc3ccccc3CN2S(=O)(=O)c2ccccc2)cc1OC (stereo not given)" measured=94
compound=Cc1ccc(-c2noc(CNS(=O)(=O)c3ccc(F)cc3)n2)cc1 measured=81
compound=O=S(=O)(c1ccc(C2CCCCC2)cc1)N1CCN(c2cc(Cl)ccc2Cl)CC1 measured=72
compound=CCOCCCn1c(SCC(=O)Nc2ccc(OC)cc2OC)nc2ccccc2c1=O measured=89
compound=COc1cccc(NC(=O)CSc2nc3ccc(NC(=O)c4ccco4)cc3s2)c1 measured=77
compound="Cc1ccc(NC(=O)C2CC=CCC2C(=O)N2CCCCC2)cc1 (stereo not given)" measured=69
compound=CCOCCc1nn2c(=O)cc(COC(=O)COc3ccccc3Cl)nc2s1 measured=88
compound=Cc1ccccc1-c1nc2cc(NC(=O)COc3ccc(F)cc3)ccc2o1 measured=56
compound=O=C(COc1ccccc1F)Nc1ccc(Cl)c(-c2nc3ccccc3[nH]2)c1 measured=33
compound=COc1ccc(CCNC(=O)CCCn2c(=O)c3ccccc3n(Cc3c(C)cc(C)cc3C)c2=O)cc1OC measured=89
compound=O=C(COc1ccccc1F)Nc1ccc2oc(-c3cccc(Cl)c3)nc2c1 measured=102
compound=Cc1ccc(C)c(NS(=O)(=O)c2ccc3oc(=O)c4ncn(C)c4c3c2)c1 measured=82
